Tested on: 1A9PTX22 ovarian carcinoma
Experiment: Anchorage Dependent Growth Monolayer Assay (ADGMA), 1A9PTX22
Type: cell-based
Settings: Homo sapiens, 1A9/ptx-22, 72 h; 1A9PTX22 ovarian carcinoma cells (paclitaxel-selected subline), 3-day exposure, MTT, A540; * = average of two independent experiments
Method: As indicated above, all of the compounds of formula I are anti-tumor agents and are, therefore, useful in inhibiting the growth of various lymphomas, sarcomas, carcinomas, myelomas, and leukemia cell lines. […] The ADGMA compares the number of viable cells following a 3-day exposure to a test compound relative to the number of cells present at the time the test compound was added. […] The absorbance at 540 nm (A540) of the formazan derivative is proportional to the number of viable cells. […]
measured property: pIC50
Keep it numeric: pIC50 is minus log10 of the concentration in mol/L.

Measured pIC50 of C=C/C=C\[C@H](C)[C@H](OC(N)=O)[C@@H](C)[C@H](O)[C@@H](C)C/C(C)=C\C(C)C(O)C(C)/C=C\[C@@H](O)C[C@H]1CCCC(=O)O1 (some centres unmarked) [Ex. 1] : 8.15

Measured pIC50 of C=C/C=C\[C@H](C)C(OC(N)=O)C(C)C(O)C(C)C/C(C)=C\[C@H](C)[C@@H](O)[C@@H](C)/C=C\COc1ccccc1 (some centres unmarked) [Ex. 3] : 7.00

Measured pIC50 of C=C/C=C\[C@H](C)C(OC(N)=O)C(C)C(O)C(C)C/C(C)=C\[C@H](C)[C@@H](O)[C@@H](C)/C=C\C(O)CC(C)C (some centres unmarked) [Ex. 7] : 7.22

Measured pIC50 of CC(=O)O[C@H]1C(=O)[C@@]2(C)[C@H]([C@H](OC(=O)c3ccccc3)[C@]3(O)C[C@H](OC(=O)[C@H](O)[C@@H](NC(=O)c4ccccc4)c4ccccc4)C(C)=C1C3(C)C)[C@]1(OC(C)=O)CO[C@@H]1C[C@@H]2O [Paclitaxel, reference compound] : 9.00

Measured pIC50 of C=C/C=C\[C@H](C)C(OC(N)=O)C(C)C(O)C(C)C/C(C)=C\[C@H](C)[C@@H](O)[C@@H](C)/C=C\C(O)CC1CCCC1 (some centres unmarked) [Ex. 6] : 9.00

Measured values drawn from patent US7192980B2 for this set.
